Cited source: paper PMC4269550

# targetDesc: UniProt Q388H8
# Sequence (Q388H8 1-446): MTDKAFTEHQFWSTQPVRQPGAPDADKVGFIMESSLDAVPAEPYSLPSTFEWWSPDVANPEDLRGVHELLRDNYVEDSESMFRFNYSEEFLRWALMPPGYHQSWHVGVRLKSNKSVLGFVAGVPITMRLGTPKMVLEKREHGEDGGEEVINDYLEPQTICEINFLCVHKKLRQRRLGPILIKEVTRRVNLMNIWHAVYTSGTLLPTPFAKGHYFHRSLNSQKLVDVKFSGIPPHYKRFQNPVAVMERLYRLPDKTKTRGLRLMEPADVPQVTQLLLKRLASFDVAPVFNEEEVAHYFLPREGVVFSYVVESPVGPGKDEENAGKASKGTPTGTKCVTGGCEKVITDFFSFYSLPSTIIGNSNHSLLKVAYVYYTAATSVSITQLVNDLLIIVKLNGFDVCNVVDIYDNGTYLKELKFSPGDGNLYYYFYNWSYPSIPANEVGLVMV
# testDescription: NMT enzyme inhibition scintillation proximity assay (TbNMT)
# Format: biochemical, T. brucei
# conditions: mean of two or more determinations; read-out: TbNMT IC50
Entries and their pIC50 values follow.
Keep in mind that pIC50 stands for -log10 of concentration in molar terms.

Worked examples, 2 compounds total:
INPUT: Fill blank: measured pIC50 of the compound Cc1nn(C)c(C)c1N(C(F)F)S(=O)(=O)c1c(Cl)cc(CCCOC[C@H]2CCCCN2)cc1Cl is ____.
OUTPUT: 8.15

INPUT: Fill blank: measured pIC50 of the compound CCN(CC)CCCCCCc1cc(Cl)c(S(=O)(=O)N(c2c(C)nn(C)c2C)C(F)F)c(Cl)c1 is ____.
OUTPUT: 8.52

New cases:
INPUT: Fill blank: measured pIC50 of the compound Cc1nn(C)c(C)c1N(C(F)F)S(=O)(=O)c1c(Cl)cc(CCCOC[C@@H]2CCCCN2)cc1Cl is ____.
OUTPUT: 8.15

----------
# targetDesc: TbNMT (Trypanosoma brucei brucei, UniProt Q388H8)
# Sequence (Q388H8 1-446): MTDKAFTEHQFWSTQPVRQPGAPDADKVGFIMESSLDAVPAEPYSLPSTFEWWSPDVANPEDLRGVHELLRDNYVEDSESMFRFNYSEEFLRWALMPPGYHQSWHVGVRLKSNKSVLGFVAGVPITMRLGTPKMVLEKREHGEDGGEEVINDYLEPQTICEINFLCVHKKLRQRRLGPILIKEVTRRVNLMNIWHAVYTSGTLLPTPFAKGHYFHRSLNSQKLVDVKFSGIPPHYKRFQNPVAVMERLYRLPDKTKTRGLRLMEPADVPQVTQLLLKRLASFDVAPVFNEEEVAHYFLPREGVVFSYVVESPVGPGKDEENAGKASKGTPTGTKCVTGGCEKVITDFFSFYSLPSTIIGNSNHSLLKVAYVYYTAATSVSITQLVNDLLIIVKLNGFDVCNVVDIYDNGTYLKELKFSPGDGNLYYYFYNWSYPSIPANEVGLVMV
# testDescription: NMT enzyme inhibition scintillation proximity assay (TbNMT)
# Format: biochemical, T. brucei
Entries and their pIC50 values follow.
Keep in mind that pIC50 stands for -log10 of concentration in molar terms.

Worked examples, 2 compounds total:
INPUT: Fill blank: measured pIC50 of the compound Cc1nn(C)c(C)c1N(C(F)F)S(=O)(=O)c1c(Cl)cc(CCCCCCn2ccnc2C(C)C)cc1Cl is ____.
OUTPUT: 7.60

INPUT: Fill blank: measured pIC50 of the compound Cc1nn(C)c(C)c1NS(=O)(=O)c1ccc(-c2ccnc(N3CCNC(c4ccccc4)C3)c2)cc1 (stereo not shown) is ____.
OUTPUT: 6.10

New cases:
INPUT: Fill blank: measured pIC50 of the compound Cc1nn(C)c(C)c1NS(=O)(=O)c1ccc(-c2ccnc(N3CCNC(Cc4ccccc4)C3)c2)cc1 (stereo not shown) is ____.
OUTPUT: 6.96

INPUT: Fill blank: measured pIC50 of the compound Cc1nn(C)c(C)c1N(C(F)F)S(=O)(=O)c1c(Cl)cc(CCCCCCn2ccnc2)cc1Cl is ____.
OUTPUT: 8.30
